Listed next: entries and their corresponding inhibition.
System: MW 32 kDa
Test: competitive ABPP of pPAFAH versus proteome hydrolases – biochemical, gel-based, FP-Rh fluorescence, complex proteome, SAR compounds, selectivity assay for pPAFAH inhibitor project, SAR follow-up (AID 588774);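 further: 0% = DMSO-only band intensity and 100% = blank gel background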
Details: at 10 µM, stronger effect = higher value
Report only the number, with the unit % understood.

Consider the worked cases shown below.
[
  {
    "smiles str": "Cc1cc(N2CCN(C(=O)Oc3ccc(-c4ccccc4)cc3)CC2)c2ccccc2n1",
    "result": 0
  },
  {
    "smiles str": "Cc1cc(N2CCN(C(=O)n3ncc(-c4ccccc4)n3)CC2)c2ccccc2n1",
    "result": 72
  },
  {
    "smiles str": "Cc1cc(N2CCN(C(=O)Oc3ccc(C4CCCCC4)cc3)CC2)c2ccccc2n1",
    "result": 0
  },
  {
    "smiles str": "Cc1cc(N2CCN(C(=O)n3ncc(-c4ccc([N+](=O)[O-])cc4)n3)CC2)c2ccccc2n1",
    "result": 85
  },
  {
    "smiles str": "Cc1cc(N2CCN(C(=O)Oc3noc4cc(Cl)ccc34)CC2)c2ccccc2n1",
    "result": 0
  }
]

Exercise: Given the compound `O=C(Oc1noc2cc(Cl)ccc12)N1CCOCC1` , what is its reported inhibition?
Key: 30

Exercise: Given the compound `Cc1cc(N2CCN(C(=O)Oc3ccc(C(F)(F)F)cc3)CC2)c2ccccc2n1` , what is its reported inhibition?
Key: 0

Exercise: Given the compound `COc1ccc(-c2cnn(C(=O)N3CCN(c4cc(C)nc5ccccc45)CC3)n2)cc1` , what is its reported inhibition?
Key: 67

Exercise: Given the compound `O=C(Oc1noc2cc(Cl)ccc12)N1CCCCC1` , what is its reported inhibition?
Key: 0
